# TARGET_OR_SYSTEM: UniProtKB A0ABF7PFR0
# Sequence (A0ABF7PFR0 58-203): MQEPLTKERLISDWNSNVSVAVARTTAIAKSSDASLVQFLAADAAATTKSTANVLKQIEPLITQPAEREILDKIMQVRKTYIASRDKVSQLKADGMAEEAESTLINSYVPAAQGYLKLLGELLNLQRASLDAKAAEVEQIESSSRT
QUANTITY_MEASURED: pKd
Keep it numeric: pKd is minus log10 of the concentration in mol/L.

Q: I have this compound here, O=C(O)C[C@@H](O)C(=O)O [D-malate] , and I need its recorded pKd.
A: 4.40

Values were extracted from paper PMC12112095.
